Measured IC50, listed per entry for reference.
Tested on: HT1197 cells
test.summary: Cell-based assay, anti-proliferative activity, MELK-negative control (Cell Counting Kit-8, 72 hours)
Design: species or system human
condition.label: Homo sapiens, HT1197, 72 h, read-out: IC50 (μM) (HTll97)
Where a name gives a salt, the structure may show the parent alone.
Value expressed in µM; do not type the unit.

Below, each entry is followed by its recorded IC50 result.
compound="CC(=O)c1cnc2ccc(-c3cc(F)c(O)c(Cl)c3)nc2c1N[C@H]1CC[C@H](CCN(C)C)CC1 [Example 10, dihydrochloride]" tgt="HT1197 cells" measured=0.2
compound="CC(=O)c1cnc2ccc(-c3cc(Cl)c(O)c(Cl)c3)nc2c1NCC1CCN(C)CC1 [Example 27, dihydrochloride]" tgt="HT1197 cells" measured=2
compound="CN(C)C[C@H]1CC[C@H](Nc2c(C(=O)C3CCC3)cnc3ccc(-c4cc(Cl)c(O)c(Cl)c4)nc23)CC1 [Example 211, dihydrochloride]" tgt="HT1197 cells" measured=0.0077
compound="COc1cc(-c2ccc3ncc(C(C)=O)c(Nc4ccc(CCN(C)C)cc4)c3n2)cc(Cl)c1O [Example 31, dihydrochloride]" tgt="HT1197 cells" measured=4.4

Exercise: Param item = CC(=O)c1cnc2ccc(-c3cc(F)c(O)c(Cl)c3)nc2c1N[C@H]1CC[C@H](CN(C)C)CC1 [Example 7, dihydrochloride] ; retrieve measured IC50.
Key: 0.11

Exercise: Param item = CCC(=O)c1cnc2ccc(-c3cc(F)c(O)c(Cl)c3)nc2c1Nc1ccc(N2CCC[C@H](N)C2)nc1 [Example 208, trihydrochloride] ; retrieve measured IC50.
Key: 0.86

###

tgt: MELK (Homo sapiens, UniProt Q14680)
Sequence (Q14680 whole entry, looked up): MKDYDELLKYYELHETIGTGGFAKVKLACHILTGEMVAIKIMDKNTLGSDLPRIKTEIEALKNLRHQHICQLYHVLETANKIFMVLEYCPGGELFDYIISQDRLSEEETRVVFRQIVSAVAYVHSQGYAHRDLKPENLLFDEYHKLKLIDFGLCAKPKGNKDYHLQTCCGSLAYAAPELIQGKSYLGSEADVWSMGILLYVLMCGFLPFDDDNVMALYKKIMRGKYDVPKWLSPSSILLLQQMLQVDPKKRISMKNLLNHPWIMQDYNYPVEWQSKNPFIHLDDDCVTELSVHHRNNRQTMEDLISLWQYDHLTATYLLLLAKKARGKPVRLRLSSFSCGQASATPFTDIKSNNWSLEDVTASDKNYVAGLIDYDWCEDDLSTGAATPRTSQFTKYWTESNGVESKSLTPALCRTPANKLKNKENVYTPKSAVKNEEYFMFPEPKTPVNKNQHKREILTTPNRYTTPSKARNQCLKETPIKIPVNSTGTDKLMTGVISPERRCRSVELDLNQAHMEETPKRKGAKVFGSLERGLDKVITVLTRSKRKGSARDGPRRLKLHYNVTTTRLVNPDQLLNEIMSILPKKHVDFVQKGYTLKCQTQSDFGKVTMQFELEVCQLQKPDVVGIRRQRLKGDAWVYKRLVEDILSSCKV
test.summary: Kinase assay (IMAP fluorescence polarization, FITC-labeled histone H3 peptide)
Format: biochemical
condition.label: 50 micro-M ATP
Counter-ions that a name gives are not always drawn.
# note: boundary value 0.003 µM maps to Criterion not met; IC50 below it maps to Criterion met

compound="CC(=O)c1cnc2ccc(N3CCC(O)C3)nc2c1N[C@H]1CC[C@H](CN2CCC(O)C2)CC1 (some centres unmarked) [Example 77]" category_label="Criterion not met"
compound="CC(=O)c1cnc2ccc(-c3cc(Cl)c(O)c(Cl)c3)nc2c1N[C@H]1CC[C@H](CCN(C)C)CC1 [Example 9, dihydrochloride]" category_label="Criterion met"
compound="CCC(=O)c1cnc2ccc(-c3cc(F)c(O)c(Cl)c3)nc2c1N[C@H]1CC[C@H](CN(C)C)CC1 [Example 205, dihydrochloride]" category_label="Criterion met"
compound="CC(=O)c1cnc2ccc(-c3ccc(C#N)nc3)nc2c1N[C@H]1CC[C@H](CN(C)C)CC1 [Example 87, dihydrochloride]" category_label="Criterion not met"

Next compound, please.
Exercise: In plain terms, does COc1cc(-c2ccc3ncc(C(C)=O)c(N[C@H]4CC[C@H](CN(C)C)CC4)c3n2)cc(Cl)c1O [Example 8, dihydrochloride] come in under 0.003 µM for IC50?
Key: Criterion met

###

Measured log10(IC50), listed per entry for reference.
tgt: MELK (Homo sapiens, UniProt Q14680)
test.summary: Kinase assay (IMAP fluorescence polarization, FITC-labeled histone H3 peptide)
Format: biochemical
condition.label: 50 micro-M ATP
Counter-ions that a name gives are not always drawn.
Recorded IC50 (log10, µM)

compound=CC(=O)c1cnc2ccc(-c3cc(F)c(O)c(Cl)c3)nc2c1Nc1ccc(N2CCC[C@@H](N)C2)nc1 test_readout=log10(IC50) measured=-2.44

# context switch: different compound, same log10(IC50)
Exercise: Param item = CC(=O)c1cnc2ccc(-c3cc(F)c(O)c(Cl)c3)nc2c1N[C@H]1CC[C@H](CN2CCCC2)CC1 [Example 62, dihydrochloride] ; retrieve measured log10(IC50).
Key: -3.05

###

Tested on: 22Rv1 cells
test.summary: Cell-based assay, anti-proliferative activity (Cell Counting Kit-8, 72 hours)
Set-up: species or system human
condition.label: Homo sapiens, 22Rv1, 72 h, read-out: IC50 (μM) (22Rvl)
Where a name gives a salt, the structure may show the parent alone.
Measured log10 of IC50, listed per entry for reference.
Recorded IC50 (log10, µM)

compound="CC(=O)c1cnc2ccc(-c3cc(Cl)c(O)c(Cl)c3)nc2c1Nc1ccc(CN2CCCC2)cc1 [Example 60, dihydrochloride]" measured=-1.00
compound=COc1cc(-c2ccc3ncc(S(C)(=O)=O)c(N[C@H]4CC[C@H](CN(C)C)CC4)c3n2)cc(Cl)c1O measured=-1.30
compound="CC(=O)c1cnc2ccc(-c3cc(Cl)c(O)c(Cl)c3)nc2c1Nc1cnn(C2CCN(C)CC2)c1 [Example 33, dihydrochloride]" measured=-0.19
compound="CCC(=O)c1cnc2ccc(-c3cc(F)c(O)c(Cl)c3)nc2c1Nc1ccc(N2CCC[C@H](N)C2)nc1 [Example 208, trihydrochloride]" measured=-1.59
compound="CN(C)CCOc1ccc(Nc2c(S(C)(=O)=O)cnc3ccc(-c4cc(F)c(O)c(Cl)c4)nc23)cn1 [Example 25, dihydrochloride]" measured=0.45
compound="CC(=O)c1cnc2ccc(-c3cc(Cl)c(O)c(Cl)c3)nc2c1Nc1ccc(N2CCC(N(C)C)C2)nc1 (stereo not drawn) [Example 51, trihydrochloride]" measured=-0.44

Exercise: Param item = CCC(=O)c1cnc2ccc(-c3cc(F)c(O)c(Cl)c3)nc2c1N[C@H]1CC[C@H](CN(C)C)CC1 [Example 205, dihydrochloride] ; retrieve measured log10 of IC50.
Key: -1.66

Exercise: Param item = CC(=O)c1cnc2ccc(-c3cc(Cl)c(O)c(Cl)c3)nc2c1N[C@H]1CC[C@H](N(C)C)CC1 [Example 2, dihydrochloride] ; retrieve measured log10 of IC50.
Key: -2.49

Exercise: Param item = CC(=O)c1cnc2ccc(-c3cc(F)c(O)c(Cl)c3)nc2c1N[C@H]1CC[C@H](NC(=O)C(C)N)CC1 (stereo partly drawn) [Example 74, dihydrochloride] ; retrieve measured log10 of IC50.
Key: -1.60

###

System: 22Rv1 cells
test.summary: Cell-based assay, anti-proliferative activity (Cell Counting Kit-8, 72 hours)
Parameters: species or system human
condition.label: Homo sapiens, 22Rv1, 72 h, read-out: IC50 (μM) (22Rvl)
Method: Active candidate inhibitors against MELK were evaluated for their target-specific cytotoxicity using 22Rv1, T47D, A549, DU4475 and HT-1197 cells was used for negative control. 100 micro-L of cell suspension was seeded onto 96-well microtiter plate (ViewPlate-96FTC, PerkinElmer). […] Cellular growth was determined using Cell Counting Kit-8 (DOJINDO) at 72 hours after the exposure of the candidate inhibitors. […] Accurate IC50 values were calculated as described previously.
Structures can show the parent of a compound that is named as a salt.
Measured IC50, listed per entry for reference.
Answer shape: numeric part, then the unit.

molecule="CC(=O)c1cnc2ccc(-c3cc(Cl)c(O)c(Cl)c3)nc2c1N[C@H]1CC[C@H](CN(C)CCO)CC1 [Example 48, dihydrochloride]" tgt="22Rv1 cells" measured="0.0092 µM"

Exercise: Form entry - test system: 22Rv1 cells; read-out: IC50; molecule: CC(=O)c1cnc2ccc(-c3cc(Cl)c(O)c(Cl)c3)nc2c1Nc1ccc(N2CCCC(N)C2)nc1 (stereo not drawn) [Example 64, trihydrochloride]
Key: 0.016 µM

Exercise: Form entry - test system: 22Rv1 cells; read-out: IC50; molecule: CC(=O)c1cnc2ccc(-c3cn[nH]c3)nc2c1N[C@H]1CC[C@H](CN(C)C)CC1 [Example 42, trihydrochloride]
Key: 0.063 µM

###

tgt: MELK (Homo sapiens)
test.summary: Kinase assay (IMAP fluorescence polarization, FITC-labeled histone H3 peptide)
Type: biochemical
condition.label: 50 micro-M ATP
Structures can show the parent of a compound that is named as a salt.
Measured IC50, listed per entry for reference.
Value expressed in µM; do not type the unit.

compound="CC(=O)c1cnc2ccc(-c3cc(C)c(O)c(C)c3)nc2c1N[C@H]1CC[C@H](CN(C)C)CC1 [Example 59, dihydrochloride]" test_readout=IC50 measured=0.0047
compound="CC(=O)c1cnc2ccc(-c3cc(Cl)c(O)c(Cl)c3)nc2c1N[C@H]1CC[C@H](CN2CCNCC2)CC1 [Example 70, trihydrochloride]" test_readout=IC50 measured=0.0006
compound="CC(=O)c1cnc2ccc(-c3cc(Cl)c(O)c(Cl)c3)nc2c1N[C@H]1CC[C@H](CO)CC1 [Example 43, hydrochloride]" test_readout=IC50 measured=0.0031
compound="CC(=O)c1cnc2ccc(-c3cc(Cl)c(O)c(Cl)c3)nc2c1Nc1cccc(CCN2CCCC2)c1 [Example 19, dihydrochloride]" test_readout=IC50 measured=0.032
compound="CN(C)C[C@H]1CC[C@H](Nc2c(S(C)(=O)=O)cnc3ccc(-c4cc(Cl)c(O)c(Cl)c4)nc23)CC1 [Example 12, dihydrochloride]" test_readout=IC50 measured=0.001

# context switch: different compound, same IC50
Exercise: Param item = CC(=O)c1cnc2ccc(Cl)nc2c1N[C@H]1CC[C@H](CN(C)C)CC1 [Example 1] ; retrieve measured IC50.
Key: 0.31
